Test system: MDA-MB-468 breast
METHOD: NCI tumour cell line growth inhibition, 48 h; in the data active means GI50 below about 0.43 µM; inactive means the rest
Just give me one of these, please: label 1 for active, label 0 for inactive

# outcome recorded in this test, key = CCOC(=O)C(=Cc1ccccc1[N+](=O)[O-])C(=O)OCC
label 0

Same for NC(=O)c1cc(Br)cc(C2CCCCC2)c1O
label 0

Clc1ccc2[nH]cc(-c3nc(-c4c[nH]c5ncccc45)cs3)c2c1 ?
label 0

Again, but for NC1CCN(c2nc(Nc3cccc(C(F)(F)F)c3)c3c(=O)[nH]ccc3n2)CC1
label 0

What do we get for COc1ccc(/C=C/c2nc(NCCCN(C)C)c3ccccc3n2)cc1 ?
label 0

---

System: MDA-MB-468 breast
Tick one outcome: 1.0 for active, 0.0 for inactive

| MOL | ASSIGNED LABEL |
| --- | --- |
| O=C(c1ccc2ncc(-c3nc(NC4CC4)ncc3F)n2c1)N1CCOCC1 | 0.0 |
| CCCCCCCCCCN(CCCCCCCCCC)CC(=O)c1ccc2cc(Br)c3ccccc3c2c1 | 0.0 |

Which outcome did this test record for the compound Cn1c(=O)c(Oc2ccccc2F)cc2cnc(NC3CCOCC3)nc21 ?
0.0

How about this compound: COc1ccc2c(Nc3ccc(NS(C)(=O)=O)cc3)c3ccccc3nc2c1
1.0

Also ClC(Cl)c1nc(-c2cccnc2)n2nc(-c3ccccc3)cc2n1 , if possible.
1.0
